Give measured GI50 for each item. Keep answers brief.
test system: NCI-H226 lung; test: NCI tumour cell line growth inhibition, 48 h

Noted for `Cn1cc(-c2ccc(=O)n(Cc3cccc(-c4ncc(OCCN5CCOCC5)cn4)c3)n2)cn1` : its GI50 reads 23.5 µM

So for `CC(=O)c1ccc(Nc2cc(-n3ccnc3)nc3ccccc23)cc1` , the logged GI50 turned out to be 24.4 µM

Kindly note the recorded GI50 for `O=C1/C(=C\c2ccc(Cl)cc2)CN(C(=S)Nc2ccccc2)C/C1=C\c1ccc(Cl)cc1` , which is 1.64 µM

Notebook: `COc1cc2cc(Oc3ccc(NC(=O)Nc4cccc(C(F)(F)F)c4)cc3)c(C)nc2cc1OCCN1CCCCC1` , GI50 read as 1.92 µM

Entry `CC(=O)[CH-]C(=O)c1ccccc1.CC(=O)[CH-]C(=O)c1ccccc1.CCN(CC)CC[O-].CCN(CC)CC[O-].Cl.[Ti+4]` , GI50 reported as 23 µM

Reported GI50 ( Cc1ccc(S(=O)(=O)NC(CCC(=O)Nc2ccc(Cl)cc2)C(=O)Nc2ccc(Cl)cc2)cc1 (stereo unspecified) ) = 0.841 µM

====

Field: TGI. Provide a value for each of the compounds that follow.
system: SK-MEL-5 melanoma; test: NCI tumour cell line growth inhibition, 48 h

# value of TGI, SK-MEL-5 melanoma, item `O=C(Nc1ccncc1)C(=O)c1cn(S(=O)(=O)c2ccc(Br)cc2)c2ccccc12` = 37.5 µM

Observed TGI on SK-MEL-5 melanoma, entry `O=C1Nc2cccc3ncn(c23)C2=C1CCCC2` , equals > 100 µM

Per the reported SK-MEL-5 melanoma data, `N#Cc1ncn(-c2ccccc2)c1N` has TGI of > 100 µM

Reading of TGI for `CN(C)CCN1C(=O)CC[C@@]2(C)C1=CC[C@@H]1[C@@H]2CC[C@@]2(C)[C@H]1CC[C@]2(C)O` with SK-MEL-5 melanoma: > 100 µM

The measured TGI that `COc1cc2cc(Oc3ccc(NC(=O)Nc4cccc(C(F)(F)F)c4)cc3)c(C)nc2cc1OCCN1CCCCC1` showed for SK-MEL-5 melanoma is 3.16 µM

SK-MEL-5 melanoma TGI of `CC(=O)Nc1ccc(Nc2cc(=O)n(C)c(=O)[nH]2)cc1` is > 100 µM

The observed TGI for `CCOC(=O)c1c(O)[nH]c(=O)c(CC)c1C` when tested with SK-MEL-5 melanoma stands at > 100 µM

Short answer on SK-MEL-5 melanoma for `CCN(CC)CCNC(=O)c1ccc([N+](=O)[O-])cc1OC` , TGI: > 100 µM

Note to self: TGI of `O=C(NCCN1C(=O)CN=C(c2ccc(Cl)cc2)c2cc(Cl)ccc21)OCc1ccccc1` with SK-MEL-5 melanoma was 30.2 µM

Reading of TGI for `Cc1cc2c(C)c3cc(C)c(N)cc3nc2cc1N` with SK-MEL-5 melanoma: 5.28 µM

`CC(=O)c1ccc(Nc2cc(-n3ccnc3)nc3ccccc23)cc1` on SK-MEL-5 melanoma gives TGI = 53 µM

The compound CCCCOC(=O)C(=O)C(CC(C(=O)Cc1ccccc1)c1ccccc1)C(=O)C=C(C)C (stereo unspecified) , tested on SK-MEL-5 melanoma, showed TGI of > 100 µM

GET /values?item= COc1ccc(-c2oc3cc(O)c(OC)c(O)c3c(=O)c2OC2OC(CO)C(O)C(O)C2O)cc1 (stereo unspecified) &system= SK-MEL-5 melanoma returns TGI: > 100 µM

TGI for SK-MEL-5 melanoma with input `CC(=O)Oc1ccccc1[C@H]1CC(=O)C[C@H](c2ccccc2OC(C)=O)C12C(=O)c1ccccc1C2=O` equals 48.7 µM

Response field TGI (SK-MEL-5 melanoma) for item `Cc1cc2nc(N3C(=O)/C(=C/c4cccc([N+](=O)[O-])c4)N=C3c3ccccc3)sc2cc1C` : > 100 µM

Entry Cc1nc2c(o1)C(=O)c1ccccc1C2=NC1CCCCC1N (stereo unspecified) : TGI on SK-MEL-5 melanoma = 0.252 µM

For `O=C(Nc1n[nH]c2nc(-c3ccco3)c(Br)cc12)C1CC1` on SK-MEL-5 melanoma, measured TGI was > 25 µM

Field TGI (system: SK-MEL-5 melanoma) for entry CC(Cl)(/C=C/Cl)C(Cl)/C=C/C(Cl)(CCl)CBr (stereo unspecified) = 25.1 µM

Record for O=C1C(C(O)(C(F)(F)Cl)C(F)(F)Cl)CCC1C(O)(C(F)(F)Cl)C(F)(F)Cl (stereo unspecified) under target or system SK-MEL-5 melanoma: TGI reported as > 10 µM

Value sought: TGI, system SK-MEL-5 melanoma, item Cc1cc(NC(=O)C2c3ccccc3C(=O)N(CC(C)C)C2c2cccs2)no1 (stereo unspecified) . Result: > 100 µM

Here `Cn1nc(-c2ccccc2NC(=O)C(F)(F)F)c(=O)n(C)c1=S` was tested on SK-MEL-5 melanoma, and its TGI came to > 100 µM

====

test system: SN12C renal; test: NCI tumour cell line growth inhibition, 48 h
Property name: TGI

Lab note: measured TGI of `Clc1ccccc1/C=C/c1nsc(/C=C/c2ccccc2Cl)n1` was 51.5 µM

Entry `C/C(=N\N(C)C)c1sc(-n2nc(-c3ccccc3)cc2-c2ccccc2)nc1C` , TGI reported as > 100 µM

Briefly, TGI measured for CC(=O)OCC1OC(Nc2ccc3nc(C)n(-c4cccc(C)c4)c(=O)c3c2)C(OC(C)=O)C(OC(C)=O)C1OC(C)=O (centres undefined) : > 62.5 µM

TGI recorded for this compound, O=C(O)CCC(NC(=O)c1ccc(Nc2nc3ccccc3nc2C(=O)O)cc1)C(=O)O (centres undefined) , is > 100 µM

The compound listed as `O=S(=O)(c1cc(Cl)ccc1Cl)N1CCN(c2ccc(Cl)c(Cl)c2)CC1` shows TGI equal to > 100 µM

// field: TGI; key: `CCOC(=O)Cc1c(Cc2[nH]c(C(=O)OCc3ccccc3)c(CC(=O)OCC)c2CC(=O)OCC)[nH]c(C(=O)OCc2ccccc2)c1CC(=O)OCC` ; value = > 100 µM

Reported TGI for CCOc1ccc(N2C(=O)C3c4[nH]c5ccccc5c4C4CCC(C(C)(C)C)CC4C3C2=O)cc1 (centres undefined) was > 100 µM

The compound listed as `COc1cc[nH]c1/C=C1\C(=O)Nc2ccc(F)c(C#C[C@@H](O)[C@@H](N)[C@@H](C)O)c21` has a reported TGI of 8.38 µM

Form: compound = `Cc1cn(CC2=NCCN2)c(=O)[nH]c1=O` ; TGI = > 100 µM

TGI measured on CC(CC(=O)CO[C@H]1[C@H](O)[C@@H](O)[C@@H](O)[C@@H]2NC(=O)c3c(cc4c(c3O)OCO4)[C@H]21)OC1OC(CO)C(O)C(O)C1O (some centres undefined) = 2.14 µM

Lab book: TGI of COc1cc2c(cc1OC)C(=O)C(Br)CC2 (centres undefined) noted as 12.8 µM

Reported TGI ( NCC(O)CNCC/C=C\C/C=C\C/C=C\C/C=C\C/C=C\C/C=C\CCCCC/C=C\CCNCC(O)CN (centres undefined) ) = 3.03 µM

Record `COc1ccc(/C=C2\CN(C(=O)CCN3CCC(=NO)CC3)C/C(=C\c3ccc(OC)cc3)C2=O)cc1` , field TGI: 5.92 µM

`Cn1c(=O)n2n(c1=O)Cc1cccc3cccc(c13)C2` yielded TGI of > 100 µM

response.value for CC(=O)Oc1ccc(N2C(=O)C3c4[nH]c5ccccc5c4C4CCC(C(C)(C)C)CC4C3C2=O)cc1 (centres undefined) (field: TGI) = 4.17 µM

response.value for ClC(Cl)(Cl)C1CCOC1n1nc2ccccc2n1 (centres undefined) (field: TGI) = > 100 µM

COc1cc(C2C(Cl)C(=O)N2n2cnc3ccccc3c2=O)cc(OC)c1OC (centres undefined) has a reported TGI of > 100 µM

TGI in this record for `CC(=O)c1ccc(Nc2cc(-n3ccnc3)nc3ccccc23)cc1` : > 100 µM

Sample N#Cc1cccc(C2ON=C(c3ccc([N+](=O)[O-])cc3)N2C23CC4CC(CC(C4)C2)C3)c1 (centres undefined) ; TGI observed: > 100 µM

====

For each of the compounds below, state its TGI.
tested on: CCRF-CEM leukemia; experiment: NCI tumour cell line growth inhibition, 48 h

The compound `CC1=COC(=O)c2ccccc2N1` showed TGI equal to > 100 µM

Record Oc1c(C2=NNC(c3cccs3)C2)ccc2ccccc12 (stereo unspecified) . Reported TGI: 37.4 µM

TGI for Nc1cccc2c1C(=O)N(C1CCC(=O)NC1=O)C2=O (stereo unspecified) is > 100 µM

Reported TGI of `NS(=O)(=O)c1ccc(NC(=O)c2cc([N+](=O)[O-])cc([N+](=O)[O-])c2)cc1` : > 100 µM

TGI reading for CC12CC3CC/C(=N\O)C(C1)C3(N1CCOCC1)C/C2=N/O (stereo unspecified) : > 100 µM

Per the records, this compound ( `O=C1C=C[C@]2(C[C@@H](c3cccc(C(F)(F)F)c3)O[C@@H](c3cccc(C(F)(F)F)c3)O2)O1` ) has TGI equal to 13.1 µM

The recorded TGI for `Cc1ccc(/C=C2\N=C(N3CCCCC3)NC2=O)cc1` is > 100 µM

Query `NNC(=O)/C(=C/c1cccc([N+](=O)[O-])c1)NC(=O)c1ccccc1` yields TGI of > 100 µM

Looking up `COc1ccc(/C=C2\CN(C(=O)CCN3CCC(=NO)CC3)C/C(=C\c3ccc(OC)cc3)C2=O)cc1` , I found its TGI recorded as 18.9 µM

The compound listed as `O=C(c1ccccc1)c1nn(-c2ccc(Cl)cc2)c2nc3nc(-c4ccccc4)cc(=O)n3nc12` has a reported TGI of > 100 µM

Value of measured TGI for the entry `CN1CCN(c2nc3ccccc3nc2C(=O)c2ccc(Cl)cc2)CC1` : > 100 µM

Entry `O=[N+]([O-])c1ccc(Sc2ncccn2)c([N+](=O)[O-])c1` , TGI reported as 5.5 µM

// field: TGI; key: `O=C(CCCN1CCC2(CC1)C(=O)NC(=O)N2c1ccccc1)c1ccc(F)cc1` ; value = > 100 µM

Summary for this compound, `CCOC(=O)c1c(O)[nH]c(=O)c(CC)c1C` : TGI is > 100 µM

`COc1ccc(/C=C2/CCCC/C2=N/O)cc1` has a reported TGI of > 100 µM

Value of TGI reported for the compound `COc1cc(-c2cc(C(=O)N3CCN(C(=O)c4ccccc4NCc4ccco4)CC3)nc3cc(-c4ccccc4)nn23)cc(OC)c1OC` is > 100 µM

Noted for `Cc1nc(-c2ccccc2)c(C)n2c1nc1ccccc12` : its TGI reads > 100 µM

TGI reported for this compound CSCCC(NCc1c(O)ccc2ccc(=O)oc12)C(=O)O (stereo unspecified) : > 100 µM

TGI recorded for this compound, `NC(N)=NS(=O)(=O)c1ccc(NC(=O)c2cccc3c(Nc4ccc(S(=O)(=O)N=C(N)N)cc4)c4ccc(Cl)cc4nc23)cc1` , is > 100 µM

# compound COc1cc2c(cc1OC)C(=O)C(Br)CC2 (stereo unspecified) ; its TGI = 11.9 µM

Per the records, this compound ( CCC1(OC(=O)CN2CCN(CCO)CC2)C(=O)OCc2c1cc1n(c2=O)Cc2cc3ccccc3nc2-1 (stereo unspecified) ) has TGI equal to 0.451 µM

Memo: `Nc1ccn(C=C=CCO)c(=O)n1` , reported TGI: > 1000 µM

Recorded TGI (compound `Cc1cccc(/C=N/NC(=S)NCc2ccccn2)n1` ): > 100 µM

response.value for `CC1=C2C(=O)O[C@@H](c3ccoc3)[C@]2(C)CCC1=O` (field: TGI) = > 100 µM

Briefly, TGI measured for N#Cc1ccccc1NC(=O)C(=O)C(C(=O)c1ccccc1-c1ccccc1)C1OC(=O)c2ccccc21 (stereo unspecified) : > 100 µM

Summary for this compound, CCOc1ccc(N2C(=O)C3c4[nH]c5ccccc5c4C4CCC(C(C)(C)C)CC4C3C2=O)cc1 (stereo unspecified) : TGI is > 100 µM

// TGI lookup, compound = `COc1ccc(NC(=O)CC(=O)n2nc(C)c(N=Nc3ccc(C)c(C)c3)c2C)cc1` , result: > 100 µM

Kindly note the recorded TGI for `CC(C)(C)c1cc(C(=O)/C=C/c2ccc(O)c(O)c2O)cc(C(C)(C)C)c1O` , which is 7.84 µM

Briefly, TGI measured for CCOC(=O)CCC(NC(=O)c1ccc(N=Cc2nc3cc(C(F)(F)F)ccc3nc2-c2ccccc2)cc1)C(=O)OCC (stereo unspecified) : > 100 µM

Data point: `Cc1c(NC(=O)C(=O)N=NC(=O)c2ccncc2)c(O)c2ccccc2c1O` ; TGI = > 87 µM

The compound listed as `N#C/C(=C1\N=C(c2ccccc2O)Oc2ccccc21)c1ccc([N+](=O)[O-])cc1` shows TGI equal to > 100 µM

`CCOC(=O)c1cnc(SCc2ccc(Cl)c(Cl)c2)nc1N1CC1` has a reported TGI of 28.1 µM

CC(CC(=O)CO[C@H]1[C@H](O)[C@@H](O)[C@@H](O)[C@@H]2NC(=O)c3c(cc4c(c3O)OCO4)[C@H]21)OC1OC(CO)C(O)C(O)C1O (stereo partly specified) has a reported TGI of 0.582 µM

So for `CC(=O)Oc1c(C)n(CCCl)ccc1=O` , the logged TGI turned out to be > 100 µM

Quick note, TGI for `O=C1Nc2cccc3ncn(c23)C2=C1CCCC2` landed at > 100 µM

Just so you know, measured TGI for O=C(CCCc1c[nH]c2ccccc12)NC1CC(=O)c2c(Br)sc(Br)c21 (stereo unspecified) came out at > 100 µM

Just so you know, measured TGI for CC(Cl)(/C=C/Cl)C(Cl)/C=C/C(Cl)(CCl)CBr (stereo unspecified) came out at 11.3 µM

Value of TGI reported for the compound `CNNC1=NS(=O)(=O)c2cc(C)c(Cl)cc2S1` is > 10 µM

Entry CC(O)c1c2c(cc3c1CC1(C3)Cc3cc4c(c(C(C)O)c3C1)CCC4)CCC2 (stereo unspecified) ; TGI = 22.1 µM

The compound listed as `CCOC(=O)N1CCN(Cc2cc(=O)n3cc(C)ccc3n2)CC1` has a reported TGI of > 100 µM

Please fill in: TGI reported for `O=C1CC(=O)N(C2CCCCC2)C(=O)N1c1ccccc1S(=O)(=O)Oc1ccccc1` = 54.5 µM
